Values compiled from ChEMBL document CHEMBL1201862.

Test system: COLO 205
Assay: NCI tumour cell line growth inhibition, 48 h
Activity calls are given as the source filed them. Rule as the data show it: active = GI50 up to about 1.1 µM and inactive = higher.
Permitted responses: active, inactive

IN: Look up the recorded call for N/N=C(\C(=O)Nc1c(Cl)cc([N+](=O)[O-])cc1Cl)C(c1cnc2ccc([N+](=O)[O-])cc2n1)[N+](=O)[O-] (stereo not drawn) in this test.
OUT: inactive

IN: Look up the recorded call for CC(C)C1CSC2N1C(=O)C2(OCc1ccccc1)C1CC1 (stereo not drawn) in this test.
OUT: inactive

IN: Look up the recorded call for COC(=O)C12C3C4(C(=O)OC)C1C1(C(=O)OC)C2C3(C(=O)OC)C41C(=O)N(C(C)C)C(C)C (stereo not drawn) in this test.
OUT: inactive

IN: Look up the recorded call for COc1cccc(N2C(=O)CSC2c2cccc(Oc3ccccc3)c2)c1 (stereo not drawn) in this test.
OUT: inactive

IN: Look up the recorded call for CC(C)(O)C1CC(=O)C(C)(C2C(O)CC3(C)C4CC=C5C(CCC(O)C5(C)C)C4(C)C(=O)CC23C)O1 (stereo not drawn) in this test.
OUT: inactive

IN: Look up the recorded call for "O=c1c(-c2ccc3c(c2)OCO3)coc2c3c(ccc12)OCO3" in this test.
OUT: inactive

IN: Look up the recorded call for "O=c1cc(NNc2cccc(Cl)c2)[nH]c(=O)[nH]1" in this test.
OUT: inactive

IN: Look up the recorded call for "O=C1CCSC(=S)N1c1ccc(Br)c(Cl)c1" in this test.
OUT: inactive

IN: Look up the recorded call for "CC(C)c1cc2c(O)c(c1)Cc1cc(C(C)C)cc(c1O)Cc1cc(C(C)C)cc(c1O)Cc1cc(C(C)C)cc(c1O)C2" in this test.
OUT: inactive

IN: Look up the recorded call for "COC(=O)n1c(CBr)c(Br)c2ccccc21" in this test.
OUT: inactive

IN: Look up the recorded call for CC(C)C(C/C=C1\CC(CO)(COC(=O)CC(C(C)C)C(C)C)OC1=O)C(C)C (stereo not drawn) in this test.
OUT: inactive

IN: Look up the recorded call for "O=C(NC(=O)c1ccccc1[N+](=O)[O-])Nc1ccc(Oc2ncc(Cl)cn2)c(C(F)(F)F)c1" in this test.
OUT: active

IN: Look up the recorded call for "c1ccc2c(c1)[Se]c1ccccc1[Se]2" in this test.
OUT: inactive

IN: Look up the recorded call for "CCc1n[nH]c(=O)n1-c1ccncc1" in this test.
OUT: inactive

IN: Look up the recorded call for "CCN(CC)CCCNc1nc(=O)[nH]c(C)c1C(=O)Nc1ccc2c(c1)c1ccccc1n2CC" in this test.
OUT: inactive

IN: Look up the recorded call for "NS(=O)(=O)c1ccc(-c2ccc([As](=O)(O)O)cc2)cc1" in this test.
OUT: inactive

IN: Look up the recorded call for CCCCCCCCCCCCCC(=O)OCC(CCS(=O)(=O)O[C@H]1CC[C@@]2(C)C(=CC[C@@H]3C2CC[C@]2(C)C(=O)CCC32)C1)OC(=O)CCCCCCCCCCCCC (stereo partly drawn) in this test.
OUT: inactive

IN: Look up the recorded call for Cc1cc(C)c2c(=O)n(CC(O)CN(Cc3ccccc3)CC(O)Cn3sc4nc(C)cc(C)c4c3=O)sc2n1 (stereo not drawn) in this test.
OUT: inactive

---

System: TK-10
Assay: NCI tumour cell line growth inhibition, 48 h
Active and inactive are the calls of the source. Rule as the data show it: active = GI50 up to about 1.1 µM and inactive = higher.
attribute_measured: GI50

IN: # query: GI50 | item CCCCCCCCOCC(O)CO (stereo unspecified) | system: TK-10
OUT: > 100 µM (inactive)

IN: # query: GI50 | item "O=c1c(-c2ccc3c(c2)OCO3)coc2c3c(ccc12)OCO3" | system: TK-10
OUT: 19.1 µM (inactive)

IN: # query: GI50 | item CCCCCCCCCCCCCCCCOCC(CC(F)(F)P(=O)(O)O)OC(C)=O (stereo unspecified) | system: TK-10
OUT: > 50 µM (inactive)

IN: # query: GI50 | item "O=c1c2c3c(sc2nc2n1N=C(c1ccc(Br)cc1)CS2)CCCC3" | system: TK-10
OUT: > 100 µM (inactive)

IN: # query: GI50 | item Cc1c2c(n(CCc3ccc(Cl)cc3)c1C)NC(c1ccccc1)C(C#N)S2(=O)=O (stereo unspecified) | system: TK-10
OUT: > 100 µM (inactive)

IN: # query: GI50 | item "O=C(Nc1ccccc1C(=O)NCc1ccccc1)/C(=C/c1ccccc1O)NC(=O)c1ccccc1" | system: TK-10
OUT: 74.6 µM (inactive)

IN: # query: GI50 | item "O=c1c(Cl)c(Cl)cnn1CCc1ccncc1" | system: TK-10
OUT: 47.5 µM (inactive)

IN: # query: GI50 | item "COc1cc2c(cc1OC)-c1cc3cc(OC)c(OC)cc3c(=O)n1CC2" | system: TK-10
OUT: 8.07 µM (inactive)

IN: # query: GI50 | item CC1OC23CCCCC2C(C#N)(C#N)C1(C#N)C(=N)O3 (stereo unspecified) | system: TK-10
OUT: 22.5 µM (inactive)

IN: # query: GI50 | item "Clc1ccccc1C(SCc1ccccc1)SCc1ccccc1" | system: TK-10
OUT: > 100 µM (inactive)

IN: # query: GI50 | item O=C(O)c1cccc(/[As]=[As]\c2cccc(C(=O)O)c2)c1 (stereo unspecified) | system: TK-10
OUT: 23.2 µM (inactive)

---

Tested on: TK-10
Assay: NCI tumour cell line growth inhibition, 48 h
The source made the active and inactive calls. No stated cut-off is given here; in the data, active = GI50 up to about 1.1 µM and inactive = higher.
For each of the compounds below, state its GI50.

IN: Query (compound): COc1cc2oc(-c3ccc(O)cc3)c(OC3OC(C)C(O)C(O)C3O)c(=O)c2c(O)c1OC (stereo not given) ; field requested: GI50
OUT: > 100 µM (inactive)

IN: Query (compound): "COc1ccc(OCC(=O)O)c(C(=O)CCC(=O)O)c1" ; field requested: GI50
OUT: > 100 µM (inactive)

IN: Query (compound): N#CC(C(=O)/C(=N/N)C(C#N)c1ccc(Cl)cc1)c1ccc(Cl)cc1 (stereo not given) ; field requested: GI50
OUT: > 100 µM (inactive)

IN: Query (compound): "CN1C(=O)C(=CNc2ccccc2[N+](=O)[O-])C(=O)N(C)C1=O" ; field requested: GI50
OUT: > 100 µM (inactive)

IN: Query (compound): "CCOc1ccc(/N=N/c2ccc3cc(/C(C)=N/NC(=O)/C(C#N)=C\c4ccc(N(CCC#N)CCC#N)cc4)c(=O)oc3c2)cc1" ; field requested: GI50
OUT: > 10 µM (inactive)

---

Test system: Malme-3M
Test: NCI tumour cell line growth inhibition, 48 h
Activity calls are given as the source filed them. Cut-off read from the data, not from the text of the source: active = GI50 up to about 1.1 µM and inactive = higher.
attribute_measured: GI50

IN: Query (molecule): "N=C1/C(=C/c2ccccc2)C(=O)N=C2SC=NN12" ; field requested: GI50
OUT: > 100 µM (inactive)

IN: Query (molecule): CNC(=O)CNC(=O)C(Cc1ccc(NC(=O)CCCCC(C)=O)cc1)NC(=O)C(CCC(=O)OCc1ccccc1)NC(=O)OC(C)(C)C (centres undefined) ; field requested: GI50
OUT: > 100 µM (inactive)

IN: Query (molecule): "[N-]=[N+]=NC1=NNC2(C(=O)N1)c1ccccc1-c1ccccc12" ; field requested: GI50
OUT: 18.1 µM (inactive)

IN: Query (molecule): "c1cc2c3c(c1)[C@@H]1O[C@@H]1c1cccc(c1-3)[C@@H]1O[C@H]21" ; field requested: GI50
OUT: 15.4 µM (inactive)

IN: Query (molecule): CC1OC23CCCCC2C(C#N)(C#N)C1(C#N)C(=N)O3 (centres undefined) ; field requested: GI50
OUT: 20.4 µM (inactive)

IN: Query (molecule): C=C1C2CCC3(CCC4C5(C)CCCC4(C=[N+](CCO)C5)C3C2)C1O (centres undefined) ; field requested: GI50
OUT: > 100 µM (inactive)

IN: Query (molecule): "COc1ccc(C)c2c1N[C@](C)([C@]1(C)Nc3c(OC)ccc(C)c3C1=O)C2=O" ; field requested: GI50
OUT: > 100 µM (inactive)

IN: Query (molecule): "CC1=NN(c2nc(N)nc(/C(C#N)=C/c3ccccc3O)n2)C(C)(C)C1" ; field requested: GI50
OUT: 18.7 µM (inactive)

IN: Query (molecule): "O=C(CC/C=C(/CS(=O)(=O)c1ccccc1)S(=O)(=O)c1ccccc1)c1ccccc1" ; field requested: GI50
OUT: > 10 µM (inactive)

---

Tested on: BT-549
Assay: NCI tumour cell line growth inhibition, 48 h
Activity calls are given as the source filed them. Cut-off read from the data, not from the text of the source: active = GI50 up to about 1.1 µM and inactive = higher.
For each of the compounds below, state its GI50.

IN: Query (compound): O=C(OCC1OC(n2nc(Cn3nnc(-c4cccnc4)n3)n(-c3cccc4ccccc34)c2=S)C(OC(=O)c2ccccc2)C1OC(=O)c1ccccc1)c1ccccc1 (stereo not given) ; field requested: GI50
OUT: > 100 µM (inactive)

IN: Query (compound): "COc1ccc(C(=C2C(=O)N(c3ccccc3)C(=O)C2=C(C)C)c2ccc(OC)cc2)cc1" ; field requested: GI50
OUT: 12.4 µM (inactive)

IN: Query (compound): "O=C1C=C/C(=C/[C@H]2SSC=C[C@]23C=CC(=O)C3)C1" ; field requested: GI50
OUT: 18.9 µM (inactive)

IN: Query (compound): "O=C1c2ccccc2/N=C(/c2cc3c(cc2Cl)Sc2nccn2S3(=O)=O)OS(=O)(=O)N1c1ccccc1" ; field requested: GI50
OUT: 17.8 µM (inactive)

IN: Query (compound): "Sc1cnnc2ccc(Br)cc12" ; field requested: GI50
OUT: 37.3 µM (inactive)
